Measured values drawn from ChEMBL document CHEMBL1961873 for this set.

measured-on: G protein-coupled receptor kinase 6 (Homo sapiens) (UniProt P43250)
Sequence (P43250 whole entry, looked up): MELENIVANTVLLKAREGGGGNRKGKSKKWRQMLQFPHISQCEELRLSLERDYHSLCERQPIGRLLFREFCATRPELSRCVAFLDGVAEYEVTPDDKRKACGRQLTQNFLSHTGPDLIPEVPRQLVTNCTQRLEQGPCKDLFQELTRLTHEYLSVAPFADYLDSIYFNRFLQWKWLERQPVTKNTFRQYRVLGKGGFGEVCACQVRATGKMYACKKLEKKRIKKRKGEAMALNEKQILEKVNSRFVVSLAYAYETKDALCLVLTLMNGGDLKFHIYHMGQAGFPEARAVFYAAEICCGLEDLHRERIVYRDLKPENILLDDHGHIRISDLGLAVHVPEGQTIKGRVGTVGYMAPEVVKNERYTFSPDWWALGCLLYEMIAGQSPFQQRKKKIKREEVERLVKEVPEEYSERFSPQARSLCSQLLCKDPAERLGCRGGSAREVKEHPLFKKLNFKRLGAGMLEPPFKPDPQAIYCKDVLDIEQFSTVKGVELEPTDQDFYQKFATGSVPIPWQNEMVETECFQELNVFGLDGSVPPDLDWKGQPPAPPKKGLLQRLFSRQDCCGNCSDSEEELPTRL
test-settings: at 0.1 µM
Give measured inhibition for each item. Keep answers brief.
Just the number in %, nothing appended.

Which measured inhibition belongs to `COc1cccc(-n2cnc3c(N/N=C/c4ccncc4)ncnc32)c1` , tested on G protein-coupled receptor kinase 6 (Homo sapiens) (UniProt P43250)?;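 also: mean percent inhibition of GRK6, GSK PKIS screen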
2.45

Can you check `CN(c1ccc(NC(=O)Nc2c(Cl)cccc2Cl)cc1)c1ccnc(Nc2cccc(CS(C)(=O)=O)c2)n1` next?
3.24

Can you check `CN1CCN(CCCNc2nc3ccc(Oc4ccc(NC(=O)Nc5cc(C(F)(F)F)ccc5F)cc4)cc3[nH]2)CC1` next?
0.32

Can you check `CCc1cccc(CC)c1/C=C/c1cncc(C(=O)NC)c1` next?
-2.11

Can you check `CCc1nccc2c1nc(-c1nonc1N)n2CC` next?
-0.76

* * *

measured-on: Serine/threonine-protein kinase TBK1 (Homo sapiens) (UniProt Q9UHD2)
Sequence (Q9UHD2 whole entry): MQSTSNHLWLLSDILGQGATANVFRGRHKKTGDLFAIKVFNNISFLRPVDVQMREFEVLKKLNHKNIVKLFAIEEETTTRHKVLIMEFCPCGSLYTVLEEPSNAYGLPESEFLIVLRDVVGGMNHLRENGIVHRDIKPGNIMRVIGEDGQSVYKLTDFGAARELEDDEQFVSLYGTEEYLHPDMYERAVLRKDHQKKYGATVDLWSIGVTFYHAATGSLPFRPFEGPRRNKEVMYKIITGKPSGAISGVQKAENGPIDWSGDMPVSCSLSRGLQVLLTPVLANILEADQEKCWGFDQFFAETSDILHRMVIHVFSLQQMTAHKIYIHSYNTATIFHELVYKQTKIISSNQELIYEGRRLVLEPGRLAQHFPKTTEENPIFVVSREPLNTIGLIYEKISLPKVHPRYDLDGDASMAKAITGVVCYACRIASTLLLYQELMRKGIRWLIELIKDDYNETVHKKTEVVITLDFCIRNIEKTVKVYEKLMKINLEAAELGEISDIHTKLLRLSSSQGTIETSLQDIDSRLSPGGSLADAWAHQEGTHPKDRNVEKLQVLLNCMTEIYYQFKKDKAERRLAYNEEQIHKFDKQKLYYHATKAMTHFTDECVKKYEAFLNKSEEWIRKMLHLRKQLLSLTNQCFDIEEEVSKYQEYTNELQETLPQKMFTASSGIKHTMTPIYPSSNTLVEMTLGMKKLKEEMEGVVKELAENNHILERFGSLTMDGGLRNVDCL
test-settings: at 1 µM
Classes (inhibition): LOW = under 3%, MEDIUM = from 3% up to 8%, HIGH = 8% and over

Which class does `COc1cc(N2CCN(C(C)C)CC2)ccc1Nc1nc(Nc2ccc(F)cc2C(=O)NC[C@@H](O)CO)c2cc[nH]c2n1` fall in?
MEDIUM

Can you check `CNC(=O)c1cncc(/C=C/c2c(C)cccc2C)c1` next?
LOW

Can you check `NC(=O)c1cc(-c2ccncc2)cc(-c2ccccc2)c1N` next?
HIGH

Can you check `NCc1ccc(-n2c(-c3nonc3N)nc3cnccc32)cc1` next?
HIGH

Can you check `CN(C)CCCNc1nccc(-c2c(-c3ccc(F)cc3)nn3cc(C(F)(F)F)ccc23)n1` next?
MEDIUM

Can you check `COc1ccc(C2=C(N3CCc4ccccc43)C(=O)NC2=O)cc1` next?
MEDIUM

Can you check `O=C(Nc1n[nH]c2cc(-c3cc(F)ccc3F)ccc12)C1CC1` next?
MEDIUM

Can you check `Fc1ccc(-c2c(-c3ccncc3)nc3n2CCS3)cc1` next?
LOW

Can you check `NS(=O)(=O)c1ccc(N/N=C2\C(=O)Nc3ccc(C(=O)NCCCn4ccnc4)cc32)cc1` next?
HIGH

Can you check `NC(=O)Cc1ccccc1Oc1nccc(-c2c(-c3ccc(F)cc3)ncn2C2CCNCC2)n1` next?
MEDIUM

Can you check `NC(=O)c1ccc(Oc2nccc(-c3c(-c4ccc(F)cc4)ncn3C3CCNCC3)n2)cc1` next?
MEDIUM

Can you check `CCc1nccc2c1nc(-c1nonc1N)n2CC` next?
MEDIUM

Can you check `C#Cc1cccc(Nc2ncnc3ccc(OCCCCNCCS(C)(=O)=O)cc23)c1` next?
HIGH

Can you check `COc1cc2ncn(-c3cc(OCc4cccs4)c(C(N)=O)s3)c2cc1OC` next?
HIGH

Can you check `COC(=O)Nc1nc2ccc(Sc3ccc(NC(=O)Nc4cc(C(F)(F)F)ccc4F)cc3)cc2[nH]1` next?
LOW

Can you check `COc1ccc2ncn(-c3cc(O[C@H](C)c4ccccc4Cl)c(C(N)=O)s3)c2c1` next?
MEDIUM

Can you check `CCN(CC)Cc1ccc(Nc2nccc(-c3cnn4ncccc34)n2)cc1` next?
HIGH

Can you check `NS(=O)(=O)c1ccc(N/N=C2\C(=O)Nc3ccc(-c4cnco4)cc32)cc1` next?
HIGH

Can you check `Fc1ccc(-c2ncn(C3CCNCC3)c2-c2ccnc(Oc3ccc(Oc4ccccc4)cc3)n2)cc1` next?
LOW

Can you check Nc1nccc(-c2c(-c3ccc(F)cc3)ncn2C2CCC(O)CC2)n1 (centres undefined) next?
LOW

Can you check `O=C1Nc2ccccc2/C1=C/Nc1ccc(-n2cncn2)cc1` next?
HIGH

Can you check `COc1cc(Nc2ncc3c(C)nc(-c4cccc(C(F)(F)F)c4)n3n2)cc(OC)c1OC` next?
HIGH

Can you check `c1ccc(-c2n[nH]cc2-c2ccnc(-c3ccc(OCCN4CCOCC4)cc3)c2)nc1` next?
LOW

Can you check `O=C(Nc1n[nH]c2nc(-c3ccco3)ccc12)C1CC1` next?
LOW

Can you check `COc1cc(Nc2ncc3c(C)nc(-c4cccc(Oc5ccccc5)c4)n3n2)cc(OC)c1OC` next?
HIGH

Can you check `Fc1ccc(-c2ncn(CCCN3CCOCC3)c2-c2ccncc2)cc1` next?
LOW

Can you check `CS(=O)(=O)CCNCc1ccc(-c2ccc3ncnc(Nc4ccc(OCc5ccccc5)c(Br)c4)c3c2)o1` next?
LOW

Can you check `COc1cccc(-n2cnc3c(N/N=C/c4ccncc4)ncnc32)c1` next?
LOW

Can you check `CCC(=O)Nc1ccc(C)c(-c2ccc(C(=O)NCC3CC3)cc2)c1` next?
LOW

Can you check `COc1cc2ncn(-c3cc(OCc4ccccc4C(F)(F)F)c(C(C)=O)s3)c2cc1OC` next?
LOW

Can you check `O=C(Nc1n[nH]c2nc(-c3ccc(O)cc3)c(Br)cc12)C1CC1` next?
HIGH

Can you check `CCc1cccc(CC)c1/C=C/c1cncc(C(=O)NC)c1` next?
LOW

Can you check `CCS(=O)(=O)c1ccc(OC)c(Nc2ncc(-c3ccccc3Cl)o2)c1` next?
MEDIUM

Can you check `O=C(Nc1ccc(Oc2ccc3[nH]c(NC(=O)c4ccccc4)nc3c2)cc1)Nc1cc(C(F)(F)F)ccc1F` next?
MEDIUM

Can you check `Cc1ccc(C(=O)NC2CCC2)cc1-c1ccc(C(=O)NCC2CC2)cc1` next?
LOW

Can you check `COc1cc2ncn(-c3cc(OCCc4ccccc4)c(C(N)=O)s3)c2cc1OC` next?
HIGH

Can you check `CN(c1ccc(NC(=O)Nc2c(Cl)cccc2Cl)cc1)c1ccnc(Nc2cccc(CS(C)(=O)=O)c2)n1` next?
HIGH
